experiment: Liver microsomal stability study, human; format: in vitro ADME; details: Human liver microsomes
Items are presented alongside their recorded half-life at 1 µM.

Below, each entry is followed by its recorded half-life at 1 µM result.
{"columns": ["CHEMICAL STRUCTURE", "half-life at 1 µM"],
 "data": [
  ["O=C(C1CN(Cc2cc(C(F)(F)F)c(=O)[nH]n2)C1)N1CCN(c2ncc(C(F)(F)F)cn2)CC1", "> 1 h"],
  ["CC(=O)Nc1cc(C(F)(F)F)cnc1N1CCN(C(=O)[C@H]2C[C@H](NCc3cc(C(F)(F)F)c(=O)[nH]n3)C2)CC1", "> 1 h"],
  ["O=C(C1CN(Cc2c[nH]c(=O)c(C(F)(F)F)c2)C1)N1CCN(c2ncc(C(F)(F)F)cn2)CC1", "> 1 h"],
  ["O=c1[nH]cc(CN[C@H]2C[C@H](C(=O)N3CCN(c4ncc(C(F)(F)F)cn4)CC3)C2)cc1C(F)(F)F", "0.5 to 1 h"],
  ["O=c1[nH]nc(CN[C@H]2C[C@H](C(=O)N3CCN(c4ncc(C(F)(F)F)cn4)CC3)C2)cc1C(F)(F)F", "> 1 h"],
  ["O=c1[nH]nc(CN[C@H]2C[C@H](C(=O)N3C4CCC3CN(c3ncc(C(F)(F)F)cn3)C4)C2)cc1C(F)(F)F", "> 1 h"],
  ["CC(=O)Nc1cc(C(F)(F)F)cnc1N1CCN(C(=O)[C@H]2C[C@H](NC(C)(C)c3cc(C(F)(F)F)c(=O)[nH]n3)C2)CC1", "> 1 h"]
]}

Please examine the following record next.
The value of half-life at 1 µM measured for the molecule "O=c1[nH]cc(CN[C@H]2C[C@H](C(=O)N3C4CCC3CN(c3ncc(C(F)(F)F)cn3)C4)C2)cc1C(F)(F)F" turned out to be 0.5 to 1 h
